test system: DU-145; assay: Induction of apoptosis in human DU145 cells at 10 uM assessed as dead cell level after 72 hrs by AnnexinV conjugated 7- AAD staining by flow cytometry; format: functional
Decision: Activity compared against 3%; not below it gives t, below it gives f.

{"columns": ["compoundSmiles", "qualitativeLabel"],
 "data": [
  ["O=C1C=C(N2CCN(c3ccccc3Cl)CC2)C(=O)c2ccccc21", "t"],
  ["O=C1C=C(N2CCN(c3ccccc3)CC2)C(=O)c2c(O)cccc21", "t"],
  ["O=C1C=C(N2CCN(c3ccccc3)CC2)C(=O)c2c(O)ccc(O)c21", "f"],
  ["O=C1C=C(N2CCC(c3ccc(Cl)cc3)CC2)C(=O)c2c(O)cccc21", "f"],
  ["O=C1C=C(N2CCC(c3ccccc3)CC2)C(=O)c2c(O)cccc21", "t"],
  ["Cc1ccccc1N1CCN(C2=CC(=O)c3cccc(O)c3C2=O)CC1", "t"],
  ["COc1ccccc1N1CCN(C2=CC(=O)c3cccc(O)c3C2=O)CC1", "t"],
  ["Cc1ccccc1C1CCN(C2=CC(=O)c3cccc(O)c3C2=O)CC1", "f"]
]}
